Please find below pIC50 data on Phosphatidylinositol 4-kinase type 2-alpha (Homo sapiens, UniProt Q9BTU6) compiled from the literature.
Sequence (Q9BTU6 whole entry): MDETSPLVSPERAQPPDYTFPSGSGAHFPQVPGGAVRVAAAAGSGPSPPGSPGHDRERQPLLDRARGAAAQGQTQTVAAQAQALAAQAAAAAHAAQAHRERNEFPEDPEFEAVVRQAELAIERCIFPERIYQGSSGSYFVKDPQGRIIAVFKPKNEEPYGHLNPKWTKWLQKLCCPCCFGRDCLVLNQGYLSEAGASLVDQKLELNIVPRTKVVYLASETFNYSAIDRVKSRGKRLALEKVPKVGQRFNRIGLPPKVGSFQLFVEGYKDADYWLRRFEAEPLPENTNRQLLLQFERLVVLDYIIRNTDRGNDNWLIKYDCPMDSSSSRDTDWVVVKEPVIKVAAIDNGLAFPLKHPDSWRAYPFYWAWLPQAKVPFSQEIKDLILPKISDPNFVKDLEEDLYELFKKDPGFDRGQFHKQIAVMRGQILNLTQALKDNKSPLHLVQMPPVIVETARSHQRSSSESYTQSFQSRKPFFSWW
pIC50: −log10 of the molar value.
metric_name: pIC50

- COc1ccc(-c2c(C)nc3c(NCCNC(C)=O)cc(Cl)nn23)cc1OC: < 4.00
- COc1ccc(-c2c(C)nn3c(NCCNC(C)=O)cc(C)nc23)cc1OC: < 4.00
- CCc1cc(CNc2cc(Cl)nn3c(-c4ccc(OC)c(S(=O)(=O)NCCO)c4)c(C)nc23)ccn1: < 5.00
- CCCCc1cc(=O)oc2cc(OCC(=O)N[C@@H](Cc3c[nH]c4ccc(O)cc34)C(=O)O)ccc12: 5.84
- COc1ccc(-c2c(C)nc3c(N)cc(Cl)nn23)cc1OC: < 4.00
- COc1ccc(-c2c(C)nn3c(NCCNS(C)(=O)=O)cc(C)nc23)cc1OC: < 4.00
- CC(=O)NCCNc1cc(Cl)nn2c(-c3ccc(F)c(C=O)c3)c(C)nc12: < 4.00
- COc1ccc(-c2c(C)nn3c(NCCOC(C)=O)cc(C)nc23)cc1OC: < 4.00
